# system under test: FGFR3 (UniProt P22607)
# Sequence (P22607 whole entry, looked up): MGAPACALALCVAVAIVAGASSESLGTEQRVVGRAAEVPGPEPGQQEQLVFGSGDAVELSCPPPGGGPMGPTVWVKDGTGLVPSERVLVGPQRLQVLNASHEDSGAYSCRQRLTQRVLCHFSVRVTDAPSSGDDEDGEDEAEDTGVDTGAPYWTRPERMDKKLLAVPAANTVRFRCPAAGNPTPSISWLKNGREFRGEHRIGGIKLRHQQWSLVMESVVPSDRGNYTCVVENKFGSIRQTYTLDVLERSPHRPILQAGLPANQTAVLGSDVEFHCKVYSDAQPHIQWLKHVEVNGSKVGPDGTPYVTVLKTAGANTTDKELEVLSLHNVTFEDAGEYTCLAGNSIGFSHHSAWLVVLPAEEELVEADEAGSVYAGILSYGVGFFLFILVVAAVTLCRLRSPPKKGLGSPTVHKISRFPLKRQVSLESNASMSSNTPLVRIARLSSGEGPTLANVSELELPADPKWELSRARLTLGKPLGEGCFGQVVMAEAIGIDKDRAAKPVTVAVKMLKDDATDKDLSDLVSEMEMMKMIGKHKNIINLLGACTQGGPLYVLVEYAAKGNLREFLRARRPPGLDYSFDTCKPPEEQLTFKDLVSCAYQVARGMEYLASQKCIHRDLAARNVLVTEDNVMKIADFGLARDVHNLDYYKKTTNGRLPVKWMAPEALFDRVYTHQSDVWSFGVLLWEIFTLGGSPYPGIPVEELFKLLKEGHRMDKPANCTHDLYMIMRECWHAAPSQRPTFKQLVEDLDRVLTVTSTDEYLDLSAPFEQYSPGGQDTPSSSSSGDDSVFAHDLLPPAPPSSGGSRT
# assay remarks: phosphorylation enrichment, bacterial display (enrichment ratio); higher = better substrate or ligand; peptides without Tyr show the background;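 note: 11-residue human phosphosite peptides and single-mutation variants displayed on the E. coli surface, counted by deep sequencing, each peptide's frequency after selection divided by its frequency in the unselected input library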;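 note: frequency after pTyr selection over input frequency; kinase dosed for 20-30% of maximal phosphorylation in three min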
Grouping rule (phosphorylation enrichment): bucket A = under 0.5, bucket B = from 0.5 up to 0.7, bucket C = 0.7 and over

sequence text | cat
VAMDDYLKNVV [LRRK2_Y707_M712V] | bucket B
SKDQIYPMKLK [RANBP17_Y823] | bucket A
YSKDNYKRVTG [PANK2_Y405] | bucket A
CEDGTYSPEIS [PTDSS1_Y424] | bucket C
VGSIKYLKREW [KCNMA1_Y885_E884K] | bucket A
LTDLRYKVSGL | bucket A
FCIDHYLGKEM [G6PD_Y202_R198C_YF] | bucket B
CEHRGYLFLAI [TEK_Y897_YF] | bucket B
FSCLPYGRLAY [SLC52A2_Y305] | bucket B
TTSQLYDAVPI [PDPK1_Y9] | bucket C
AFLQTYAHEVS [PCDHGA5_Y753_S754A] | bucket B
VITDFYVDMKF [MPP4_Y567_YF] | bucket C
VNTMLYEKFTY [TEK_Y1108_T1106M] | bucket C
HVEAVYIDIAD [PITPNA_Y140] | bucket C
GLAELYEYKKK [CKAP5_Y1854] | bucket B
QFNPEYVQQAS [LRRC7_Y1058_H1054Y_YF] | bucket C
ARQEEYSAMRD [KRAS_Y64_G60R] | bucket B
MDFRSYPHEFG [RBM10_Y44_R46H_YF] | bucket B
HIKHNYECLVY [XRCC5_Y416] | bucket C
TRLAQYDSNSK [BMX_Y216_S212R] | bucket A
DAVAVCHGKIS [SH2D1A_Y7_Y7C] | bucket B
YQASYYRRGDR [LTK_Y677_R673Q] | bucket B
RPSELYYSKIG [SMG1_Y2253] | bucket C
SVVVPYEPPEI [TP53_Y220_V225I] | bucket B
RSAGKYDVFLI [MECP2_Y120_YF] | bucket C
DPLLTYRFPPK [LMNA_Y481] | bucket A
